experiment: Parent ionizable lipid remaining in liver at 24 h after EGFP mRNA LNP (LC-MS); format: in vivo; conditions: Table 29; 24 h after IV 0.5 mg/kg EGFP mRNA LNP, female BALB/c mice (n = 4)
Please note: Parent ionizable lipid remaining in liver, Average exactly at 9 nmol/g liver is -1. Only values below 9 nmol/g liver get 1.

compound	cat
CCCCCC/C=C\CCON(C(=O)CCCCN(C)C)C(CCCCCCCCCC)CCCCCCC(=O)OCCC(CCCCC)CCCCC (stereo not drawn) [Compound 94]	1

Ask | Given the entry CCCCCC/C=C\CCON(C(=O)CCCN(C)C)C(CCCCCCCCCC)CCCCCCC(=O)OCCC(CCCCC)CCCCC (stereo not drawn) [Compound 100] , would its reported Parent ionizable lipid remaining in liver, Average be below 9 nmol/g liver?
Reply | 1

Ask | Given the entry CCCCCCCCCCON(C(=O)CCCCN(C)C)C(CCCCCCCCCC)CCCCCCC(=O)OCCC(CCCCC)CCCCC (stereo not drawn) [Compound 95] , would its reported Parent ionizable lipid remaining in liver, Average be below 9 nmol/g liver?
Reply | -1

Ask | Given the entry CCCCCCCCCCN(C(=O)CCCN(C)C)C(CCCCCCCCC)CCCCC(F)(F)C(=O)OC(CCCCCCC)CCCCCCC (stereo not drawn) [Compound 101] , would its reported Parent ionizable lipid remaining in liver, Average be below 9 nmol/g liver?
Reply | -1

Ask | Given the entry CCCCCCCCCCN(C(=O)CCCN(C)C)C(CCCCCCCCC)CCCCCCC(F)(F)C(=O)OC(CCCCCCC)CCCCCCC (stereo not drawn) [Compound 93] , would its reported Parent ionizable lipid remaining in liver, Average be below 9 nmol/g liver?
Reply | -1

Ask | Given the entry CCCCCCCCCCON(C(=O)CCCCN(C)C)C(CCCCCCCCCC)CCCCCCC(=O)OCCC(CCCCCC)CCCCCC (stereo not drawn) [Compound 97] , would its reported Parent ionizable lipid remaining in liver, Average be below 9 nmol/g liver?
Reply | -1

Ask | Given the entry CCCCC/C=C\CCCC(CCC/C=C\CCCCC)C(CCC/C=C\CCCCC)OC(=O)CCCCN(C)C (stereo not drawn) [Compound 13-B43, reference compound] , would its reported Parent ionizable lipid remaining in liver, Average be below 9 nmol/g liver?
Reply | -1

Ask | Given the entry CCCCCC/C=C\CCON(C(=O)CCCCN(C)C)C(CCCCCCCCCC)CCCCCCC(=O)OCCC(CCCCCCC)CCCCCCC (stereo not drawn) [Compound 98] , would its reported Parent ionizable lipid remaining in liver, Average be below 9 nmol/g liver?
Reply | -1

---

Below, each entry is listed alongside its reported Parent ionizable lipid remaining in liver, Average.
test: Parent ionizable lipid remaining in liver at 24 h after EGFP mRNA LNP (LC-MS); assay type: in vivo; conditions: Table 30; 24 h after IV 0.5 mg/kg EGFP mRNA LNP, female BALB/c mice (n = 4)
Could you give me the number in nmol/g liver? Just the number is fine.

Ask | For the compound CCCCCCCCCCC(CCCCCCC(=O)OC(CCCCCC)CCCCCC)N(CCCCCCC(F)(F)C(=O)OC(CCCCCC)CCCCCC)C(=O)CCCN(C)C (centres unmarked) [Compound 116] , report Parent ionizable lipid remaining in liver, Average.
Reply | 60.05

Ask | For the compound CCCCCCCCCCN(C(=O)CCCN(C)C)C(CCCCCCCCC)CCCCCCC(F)C(=O)OC(CCCCCC)CCCCCC (centres unmarked) [Compound 113] , report Parent ionizable lipid remaining in liver, Average.
Reply | 4.68

Ask | For the compound CCCCCCCCCCN(C(=O)CCCN(C)C)C(CCCCCCCCC)CCCCCCC(F)C(=O)OC(CCCCCCC)CCCCCCC (centres unmarked) [Compound 114] , report Parent ionizable lipid remaining in liver, Average.
Reply | 12.79
